- SYSTEM NAME: human Edg-1 receptor (Homo sapiens)
- Construct: FLAG (N); expressed in transfected cells; membrane preparation
- EXPERIMENTAL PROTOCOL: GTP-γ-S assay using human Edg-1 receptors (SPA, CHO Flp-In cell membrane preparation)
- Type: biochemical
- COND: test compound at 10 μM; high control 10 μM S1P regarded as 100% activation; background-corrected; triplicate; read-out: % Activation (Edg-1 receptor activation in percent of the activation by 10 μM S1P)
The entries below come with measured activation at 10 µM values attached.
# include the unit after the value

COMPOUND	activation at 10 µM
CCCOc1nc(OC2CCCCC2)nc2oc(-c3cc(F)ccc3Cl)nc12 [Example 80]	46%
CCCOc1nc(Oc2ccc(=O)n(C)n2)nc2oc(-c3cccc(C)c3)nc12 [Example 56]	97%
CCCOc1nc(NC2CCOCC2)nc2oc(-c3cc(F)ccc3Cl)nc12 [Example 57]	80%
CCCOc1nc(Oc2cc(C(F)(F)F)ccc2Cl)nc2oc(-c3cccc(C)c3)nc12 [Example 143]	52%
Fc1cncc(Oc2nc(OCC3CC3)c3nc(-c4ccc(Cl)c(Cl)c4)oc3n2)c1 [Example 108]	98%

-- ask Consider the compound shown here: CCCOc1nc(Oc2cccnc2)nc2oc(-c3cccc(OC)c3)nc12 [Example 41] What is its recorded activation at 10 µM?
-- reply 102%

-- ask Now try CCCOc1nc(NN2CCOCC2)nc2oc(-c3cccc(C)c3)nc12 [Example 65] .
-- reply 105%

-- ask Now try CCCOc1nc(NC2CCOCC2)nc2oc(-c3cccc(C)c3)nc12 [Example 3] .
-- reply 74%

====

- SYSTEM NAME: human Edg-1 receptor (Homo sapiens, UniProt P21453)
- Construct: FLAG (N); expressed in transfected cells; membrane preparation
- Sequence (P21453 whole entry): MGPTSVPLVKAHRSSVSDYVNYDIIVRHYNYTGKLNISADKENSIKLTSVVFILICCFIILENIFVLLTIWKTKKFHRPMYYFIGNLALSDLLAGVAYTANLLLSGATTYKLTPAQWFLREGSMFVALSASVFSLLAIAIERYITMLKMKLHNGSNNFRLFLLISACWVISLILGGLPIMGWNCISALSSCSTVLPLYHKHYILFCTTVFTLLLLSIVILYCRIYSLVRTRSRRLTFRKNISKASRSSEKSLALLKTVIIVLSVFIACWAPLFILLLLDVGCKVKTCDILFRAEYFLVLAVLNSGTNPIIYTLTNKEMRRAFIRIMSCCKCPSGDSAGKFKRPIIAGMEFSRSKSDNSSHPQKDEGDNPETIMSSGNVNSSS
- EXPERIMENTAL PROTOCOL: GTP-γ-S assay using human Edg-1 receptors (SPA, CHO Flp-In cell membrane preparation)
- Type: biochemical
- COND: test compound at 10 μM; high control 10 μM S1P regarded as 100% activation; background-corrected; triplicate; read-out: % Activation (Edg-1 receptor activation in percent of the activation by 10 μM S1P)
The entries below come with measured activation at 10 µM values attached.
# include the unit after the value

MOLECULE	METRIC NAME	RESULT
CCCOc1nc(Oc2ccccc2)nc2oc(-c3cccc(F)c3)nc12 [Example 61]	activation at 10 µM	74%

-- ask Consider the molecule shown here: CCCOc1nc(Oc2cccc(SC(F)(F)F)c2)nc2oc(-c3cccc(C)c3)nc12 [Example 116] What is its recorded activation at 10 µM?
-- reply 70%

-- ask Now try CCCOc1nc(Oc2ccc(F)cc2OC)nc2oc(-c3cccc(C)c3)nc12 [Example 99] .
-- reply 91%

-- ask Now try CCCOc1nc(Oc2ccc(C)cc2)nc2oc(-c3cccc(C)c3)nc12 [Example 73] .
-- reply 80%

-- ask Now try CCCOc1nc(SC2CCS(=O)(=O)C2)nc2oc(-c3cccc(C)c3)nc12 (stereo not drawn) [Example 27] .
-- reply 93%

-- ask Now try CCCOc1nc(Oc2ccccc2SC)nc2oc(-c3cccc(C)c3)nc12 [Example 139] .
-- reply 120%

-- ask Now try CCCOc1nc(OC2CCCCC2)nc2oc(-c3cccc(F)c3)nc12 [Example 62] .
-- reply 111%

-- ask Now try CCCOc1nc(Oc2cc(C)ccc2Cl)nc2oc(-c3cccc(C)c3)nc12 [Example 137] .
-- reply 89%

-- ask Now try Cc1cccc(-c2nc3c(OCC4CC4)nc(Oc4ccccc4F)nc3o2)c1 [Example 29] .
-- reply 109%
